- PROCEDURE SUMMARY: Kinetic solubility in PBS
- Assay type: physicochemical
- CONDITION SUMMARY: phosphate-buffered saline, pH 7.4, aqueous buffer, kinetic from dmso stock
PROPERTY LABEL: solubility at 2 h

QUERY: Dear colleague, I am looking for the recorded solubility at 2 h of the following molecule: O=P(O)(O)CP(=O)(O)OC[C@H]1O[C@@H](n2ccc3c(-c4cc5ccccc5o4)nc(Cl)nc32)[C@H](O)[C@@H]1O [7B.8]
RESULT: 87 µM

QUERY: Field request: solubility at 2 h | item: N#Cc1ccc(-c2nc(Cl)nc3c2ccn3[C@@H]2O[C@H](COP(=O)(O)CP(=O)(O)O)[C@@H](O)[C@H]2O)c2ccccc12 [7B.34]
RESULT: > 100 µM

QUERY: Given O=P(O)(O)CP(=O)(O)OC[C@H]1O[C@@H](n2ccc3c(-c4cccc5ccncc45)ncnc32)[C@H](O)[C@@H]1O [4A.18] , state its recorded solubility at 2 h.
RESULT: 56 µM

QUERY: What does the record list as solubility at 2 h for O=P(O)(O)CP(=O)(O)OC[C@H]1O[C@@H](n2ccc3c(-c4ccc5cc(O)ccc5c4)nc(Cl)nc32)[C@H](O)[C@@H]1O [7B.32] ?
RESULT: > 100 µM

QUERY: Fill in: solubility at 2 h of O=P(O)(O)CP(=O)(O)OC[C@H]1O[C@@H](n2ccc3c(-c4ccc5ccccc5c4)ncnc32)[C@H](O)[C@@H]1O [4A.7] is ___
RESULT: > 100 µM

QUERY: Consider the molecule shown here: O=P(O)(O)CP(=O)(O)OC[C@H]1O[C@@H](n2ccc3c(-c4ccsc4)ncnc32)[C@H](O)[C@@H]1O [4A.4] What is its recorded solubility at 2 h?
RESULT: 90 µM

QUERY: Bench note: what solubility at 2 h did O=P(O)(O)CP(=O)(O)OC[C@H]1O[C@@H](n2ccc3c(-c4cccc5c4OCCC5)ncnc32)[C@H](O)[C@@H]1O [4A.13] show?
RESULT: 81 µM

QUERY: Request the reported solubility at 2 h associated with O=P(O)(O)CP(=O)(O)OC[C@H]1O[C@@H](n2ccc3c(-c4ccc(-c5ccccc5)cc4)ncnc32)[C@H](O)[C@@H]1O [4A.9]
RESULT: 64 µM

QUERY: What value of solubility at 2 h has been recorded for this entry: O=P(O)(O)CP(=O)(O)OC[C@H]1O[C@@H](n2ccc3c(-c4ccco4)ncnc32)[C@H](O)[C@@H]1O [4A.1]
RESULT: 25 µM

QUERY: Can you look up the measured solubility at 2 h of O=P(O)(O)CP(=O)(O)OC[C@H]1O[C@@H](n2ccc3c(-c4cccc5ccccc45)nc(Cl)nc32)[C@H](O)[C@@H]1O [7B.6] for me?
RESULT: 92 µM

QUERY: I have this molecule here, O=P(O)(O)CP(=O)(O)OC[C@H]1O[C@@H](n2ccc3c(-c4cc(Br)c5ccccc5c4F)nc(Cl)nc32)[C@H](O)[C@@H]1O [7B.26] , and I need its recorded solubility at 2 h.
RESULT: 71 µM

QUERY: I am curious: what solubility at 2 h value has been reported for COc1nc(-c2ccc3ccccc3c2)c2ccn([C@@H]3O[C@H](COP(=O)(O)CP(=O)(O)O)[C@@H](O)[C@H]3O)c2n1 [21F.7] ?
RESULT: 79 µM

QUERY: Item O=P(O)(O)CP(=O)(O)OC[C@H]1O[C@@H](n2ccc3c(-c4cccc5c4CCCC5)nc(Cl)nc32)[C@H](O)[C@@H]1O [7B.12] has what recorded solubility at 2 h?
RESULT: 85 µM

====

Could you please report measured inhibition at 25 min, 10 µM for the items listed next?
- ASSAY SYSTEM: CYP2C9 (Homo sapiens)
- Construct: assay run by Bienta (Enamine Biology Services)
- Sequence (P11712 whole entry): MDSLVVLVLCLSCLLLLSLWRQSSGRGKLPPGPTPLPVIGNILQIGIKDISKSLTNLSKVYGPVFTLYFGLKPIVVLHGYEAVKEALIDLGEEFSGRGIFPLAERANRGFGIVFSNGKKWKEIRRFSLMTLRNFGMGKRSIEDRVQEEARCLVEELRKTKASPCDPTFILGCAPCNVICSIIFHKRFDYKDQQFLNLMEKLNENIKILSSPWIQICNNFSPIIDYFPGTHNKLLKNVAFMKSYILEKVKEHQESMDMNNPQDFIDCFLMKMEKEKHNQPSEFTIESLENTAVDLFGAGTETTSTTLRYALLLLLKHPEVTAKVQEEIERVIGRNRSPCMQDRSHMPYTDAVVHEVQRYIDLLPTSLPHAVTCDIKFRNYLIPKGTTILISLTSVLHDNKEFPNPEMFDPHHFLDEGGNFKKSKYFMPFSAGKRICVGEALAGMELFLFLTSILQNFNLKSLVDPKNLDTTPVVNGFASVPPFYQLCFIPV
- PROCEDURE SUMMARY: In vitro CYP450 inhibition assay (Vivid)
- Type: biochemical
- CONDITION SUMMARY: probe fluorogenic Vivid CYP450 substrate (not named)
Write down the numeric answer in % and omit the unit.

QUERY: Name the recorded inhibition at 25 min, 10 µM for O=P(O)(O)CP(=O)(O)OC[C@H]1O[C@@H](n2ccc3c(-c4ccc5ccccc5c4)ncnc32)[C@H](O)[C@@H]1O [4A.7] .
RESULT: 23

QUERY: Quick check: inhibition at 25 min, 10 µM of O=P(O)(O)CP(=O)(O)OC[C@H]1O[C@@H](n2ccc3c(-c4cccc5c4CCCC5)nc(Cl)nc32)[C@H](O)[C@@H]1O [7B.12] ?
RESULT: 15

QUERY: # input molecule: O=P(O)(O)CP(=O)(O)OC[C@H]1O[C@@H](n2ccc3c(-c4ccc5c(c4)CCCC5)nc(Cl)nc32)[C@H](O)[C@@H]1O [7B.23] ; wanted: its inhibition at 25 min, 10 µM
RESULT: 21

QUERY: Param item = Cc1nc(-c2cccc3ccccc23)c2ccn([C@@H]3O[C@H](COP(=O)(O)CP(=O)(O)O)[C@@H](O)[C@H]3O)c2n1 [18E.6] ; retrieve measured inhibition at 25 min, 10 µM.
RESULT: 12

QUERY: Item under review: O=P(O)(O)CP(=O)(O)OC[C@H]1O[C@@H](n2ccc3c(-c4ccc(F)c5ccccc45)nc(Cl)nc32)[C@H](O)[C@@H]1O [7B.28] . Reported inhibition at 25 min, 10 µM?
RESULT: 24

QUERY: Give the measured inhibition at 25 min, 10 µM of O=P(O)(O)CP(=O)(O)OC[C@H]1O[C@@H](n2ccc3c(-c4ccc5c(c4)CCCC5)nc(I)nc32)[C@H](O)[C@@H]1O [27H.23] .
RESULT: 11

QUERY: State the recorded inhibition at 25 min, 10 µM for this entry: O=P(O)(O)CP(=O)(O)OC[C@H]1O[C@@H](n2ccc3c(-c4cccc5ccncc45)ncnc32)[C@H](O)[C@@H]1O [4A.18]
RESULT: 11

====

- PROCEDURE SUMMARY: Microsomal stability assay, human liver microsomes
- Format: in vitro ADME
- CONDITION SUMMARY: 10 μM
PROPERTY LABEL: Mics (hu) comp remaining 60 min (%)
Enter your answer as a number in %; do not include the unit.

QUERY: For Nc1nc(-c2cccc3c2CCCC3)c2ccn([C@@H]3O[C@H](COP(=O)(O)CP(=O)(O)O)[C@@H](O)[C@H]3O)c2n1 [11C.12] , what is its reported Mics (hu) comp remaining 60 min?
RESULT: 101

QUERY: Look at this molecule and give its reported Mics (hu) comp remaining 60 min. O=P(O)(O)CP(=O)(O)OC[C@H]1O[C@@H](n2ccc3c(-c4ccncc4)ncnc32)[C@H](O)[C@@H]1O [4A.16]
RESULT: 94

QUERY: Given the entry O=P(O)(O)CP(=O)(O)OC[C@H]1O[C@@H](n2ccc3c(-c4ccc5ccccc5c4)nc(Cl)nc32)[C@H](O)[C@@H]1O [7B.7] , report its measured Mics (hu) comp remaining 60 min.
RESULT: 111

QUERY: Which Mics (hu) comp remaining 60 min is listed for O=P(O)(O)CP(=O)(O)OC[C@H]1O[C@@H](n2ccc3c(-c4cccc5c4CCCC5)nc(Cl)nc32)[C@H](O)[C@@H]1O [7B.12] ?
RESULT: 101

QUERY: Looking for the measured Mics (hu) comp remaining 60 min of O=P(O)(O)CP(=O)(O)OC[C@H]1O[C@@H](n2ccc3c(-c4cccc5ccccc45)nc(F)nc32)[C@H](O)[C@@H]1O [14D.6] , can you help?
RESULT: 100

QUERY: Given the molecule O=P(O)(O)CP(=O)(O)OC[C@H]1O[C@@H](n2ccc3c(-c4ccc5c(c4)CCO5)ncnc32)[C@H](O)[C@@H]1O [4A.14] , what is its reported Mics (hu) comp remaining 60 min?
RESULT: 112

QUERY: Form field: reported Mics (hu) comp remaining 60 min of O=P(O)(O)CP(=O)(O)OC[C@H]1O[C@@H](n2ccc3c(-c4ccc5cc(Cl)ccc5c4)nc(Cl)nc32)[C@H](O)[C@@H]1O [7B.27]
RESULT: 148

QUERY: Sample O=P(O)(O)CP(=O)(O)OC[C@H]1O[C@@H](n2ccc3c(-c4cccc5c4CCCC5)nc(F)nc32)[C@H](O)[C@@H]1O [14D.12] — what was its Mics (hu) comp remaining 60 min?
RESULT: 99

QUERY: Param item = Nc1ccc(-c2nc(Cl)nc3c2ccn3[C@@H]2O[C@H](COP(=O)(O)CP(=O)(O)O)[C@@H](O)[C@H]2O)c2ccccc12 [7B.33] ; retrieve measured Mics (hu) comp remaining 60 min.
RESULT: 109

QUERY: Reported Mics (hu) comp remaining 60 min, molecule O=P(O)(O)CP(=O)(O)OC[C@H]1O[C@@H](n2ccc3c(-c4ccco4)nc(Cl)nc32)[C@H](O)[C@@H]1O [7B.1] : ____
RESULT: 98

QUERY: # Mics (hu) comp remaining 60 min lookup, item O=P(O)(O)CP(=O)(O)OC[C@H]1O[C@@H](n2ccc3c(-c4ccc5cnccc5c4)ncnc32)[C@H](O)[C@@H]1O [4A.21]
RESULT: 95

QUERY: I would be grateful if you could share the reported Mics (hu) comp remaining 60 min for Cc1nc(-c2cc3ccccc3o2)c2ccn([C@@H]3O[C@H](COP(=O)(O)CP(=O)(O)O)[C@@H](O)[C@H]3O)c2n1 [18E.8] .
RESULT: 95

QUERY: Quick one: Mics (hu) comp remaining 60 min of O=P(O)(O)CP(=O)(O)OC[C@H]1O[C@@H](n2cnc3c(-c4ccc5ccccc5c4)ncnc32)[C@H](O)[C@@H]1O [31A.7] ?
RESULT: 106

QUERY: Any idea what its Mics (hu) comp remaining 60 min is? The molecule is Cc1nc(-c2ccco2)c2ccn([C@@H]3O[C@H](COP(=O)(O)CP(=O)(O)O)[C@@H](O)[C@H]3O)c2n1 [18E.1]
RESULT: 100
